Experiment: In vivo efficacy, mouse model of juvenile (21-day old) S. mansoni infection
Conditions: female, CD1, plasma; mouse, Juvenile infection, oral 6.25 mg/kg, formulation corn oil; read-out: Plasma conc @24 h (efficacy experiment)
experimentalReadout: concentration at 24 h (ng/mL)
Report the figure in ng/mL without appending any unit label.

Request: I have this compound here, Fc1ccc(-c2cn3c(-c4ccc5[nH]ncc5c4F)c(C(F)(F)F)nc3cn2)cc1C(F)(F)C(F)(F)F , and I need its recorded concentration at 24 h.
Response: 708

====

Test: In vivo efficacy, mouse model of adult (42-day old) S. mansoni infection
Conditions: female, CD1, mouse, plasma, po, 200 mg/kg, mouse, Adult infection, oral 200 mg/kg, formulation Aq; read-out: Plasma conc @24 h (efficacy experiment)
experimentalReadout: concentration at 24 h (ng/mL)
Report the figure in ng/mL without appending any unit label.

Request: I have this compound here, CC(C)c1nc2cnc(-c3ccc(F)c(C(F)(F)F)c3)cn2c1-c1c(F)cc(O)cc1F , and I need its recorded concentration at 24 h.
Response: 2000
